Below: a set of entries, each annotated with reported Proliferation of mouse NFS-60 cells, induced by G-CSF variants.
- Tested on: mouse NFS-60 cells
- Method notes: Mitogenicity of G-CSF variants for mouse NFS-60 cells (Example 6.3)
- Type: cell-based
- Test conditions: Conc. 5 pg/ml (G-CSF content), 3 days
- Method: G-CSF is known for its specific effects on the proliferation, differentiation and activation of hematopoietic cells of the neutrophilic granulocyte lineage. The mitogenic capacity of G-CSF variants was tested using mouse NFS-60 cells (N. Shirafuji et al., Exp. Hematol. 1989, 17, 116-119). […] NFS-60 cells were exposed to purified G-CSF variants (purification according to examples 3A 1 und 2, protein quantification according to example 3B1): […]
Observed property: Proliferation of mouse NFS-60 cells, induced by G-CSF variants

{"Molecule": "Neupogen: non-modified Neupogen (Amgen), rhG-CSF filgrastim, non-glycosylated, E. coli (protein, UniProt P09919 31-207, looked up, filgrastim, N-terminal Met, non-modified Neupogen (Amgen), rhG-CSF filgrastim, non-glycosylated, E. coli) Granulocyte …: TPLGPASSLPQSFLLKCLEQVRKIQGDGAALQEKLVSECATYKLCHPEELVLLGHSLGIPWAPLSSCPSQALQLAGCLSQLHSGLFLYQGLLQALEGISPELGPTLDTLQLDVADFATTIWQQMEELGMAPALQPTQGAMPAFASAFQRRAGGVLVASHLQSFLEVSYRVLRHLAQP", "Recorded number": 1.20}
{"Molecule": "HES-GCSF 30/0.4: hG-CSF conjugated with AldehydoHES30/0.4 of example 6.1(f), prepared in example 6.2(d) (conjugate, UniProt P09919 31-207, looked up, hydroxyethyl starch conjugate HES30/0.4) Granulocyte …: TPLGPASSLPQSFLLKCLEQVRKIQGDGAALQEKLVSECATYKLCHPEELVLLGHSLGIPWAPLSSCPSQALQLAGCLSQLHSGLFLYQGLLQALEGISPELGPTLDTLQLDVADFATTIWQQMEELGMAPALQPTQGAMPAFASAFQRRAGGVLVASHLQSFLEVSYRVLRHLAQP", "Recorded number": 1.21}
{"Molecule": "HES-GCSF 10/0.4: hG-CSF conjugated with AldehydoHES10/0.4 of example 6.1(b), prepared in example 6.2(b) (conjugate, UniProt P09919 31-207, looked up, hydroxyethyl starch conjugate HES10/0.4) Granulocyte …: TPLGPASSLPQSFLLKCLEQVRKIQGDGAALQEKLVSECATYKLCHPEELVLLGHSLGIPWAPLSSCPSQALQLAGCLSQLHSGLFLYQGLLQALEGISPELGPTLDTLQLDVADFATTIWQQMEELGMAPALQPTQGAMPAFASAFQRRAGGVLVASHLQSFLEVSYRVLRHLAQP", "Recorded number": 0.97}
{"Molecule": "HES-GCSF 50/0.7: hG-CSF conjugated with AldehydoHES50/0.7 of example 6.1(j), prepared in example 6.2(b) (conjugate, UniProt P09919 31-207, looked up, hydroxyethyl starch conjugate HES50/0.7) Granulocyte …: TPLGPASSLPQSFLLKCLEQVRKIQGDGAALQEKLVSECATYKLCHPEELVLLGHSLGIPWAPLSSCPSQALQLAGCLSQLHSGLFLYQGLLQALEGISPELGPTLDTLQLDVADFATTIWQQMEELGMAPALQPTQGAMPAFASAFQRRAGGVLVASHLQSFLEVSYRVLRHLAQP", "Recorded number": 0.70}
{"Molecule": "HES-GCSF 10/0.7: hG-CSF conjugated with AldehydoHES10/0.7 of example 6.1(d), prepared in example 6.2(b) (conjugate, UniProt P09919 31-207, looked up, hydroxyethyl starch conjugate HES10/0.7) Granulocyte …: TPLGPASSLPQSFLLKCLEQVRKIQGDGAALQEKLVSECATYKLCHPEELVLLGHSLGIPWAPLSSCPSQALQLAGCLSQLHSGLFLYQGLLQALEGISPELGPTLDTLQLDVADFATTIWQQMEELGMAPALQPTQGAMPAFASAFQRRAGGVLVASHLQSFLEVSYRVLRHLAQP", "Recorded number": 0.93}
